System: Methicillin-resistant S. epidermidis ET-024
Assay type: cell-based, Staphylococcus epidermidis
COND: Methicillin-resistant ET-024, 18 h
Non-standard residues stand in square brackets, D forms with d. Residues, ends and D or L forms follow the SMILES beside them. Gly(Nα-4-Cl-benzyl) = O=C(O)CNCc1ccc(Cl)cc1; N(4-Br-benzyl)Gly = O=C(O)CNCc1ccc(Br)cc1; N(4-F-Bzl)Gly = O=C(O)CNCc1ccc(F)cc1; NBzl(4-I)Gly = O=C(O)CNCc1ccc(I)cc1; Nphe = O=C(O)CNCc1ccccc1; Nlys = NCCCCNCC(=O)O
ATTRIBUTE_MEASURED: Minimal inhibitory concentration MRSE^d (µg/mL)
Write the number in µg/mL without appending the unit.

Req: Item NCCCCNCC(=O)N(CC(=O)N(CCCCN)CC(=O)N(CC(=O)N(CCCCN)CC(=O)N(CC(N)=O)Cc1ccc(Br)cc1)Cc1ccc(Br)cc1)Cc1ccc(Br)cc1 [Compound 4] (H-[Nlys][N(4-Br-benzyl)Gly][Nlys][N(4-Br-benzyl)Gly][Nlys][N(4-Br-benzyl)Gly]-NH2) has what recorded Minimal inhibitory concentration MRSE^d?
Resp: 4

Req: Item NCCCCNCC(=O)N(CC(=O)N(CCCCN)CC(=O)N(CC(=O)N(CCCCN)CC(=O)N(CC(N)=O)Cc1ccc(F)cc1)Cc1ccc(F)cc1)Cc1ccc(F)cc1 [Compound 2] (H-[Nlys][N(4-F-Bzl)Gly][Nlys][N(4-F-Bzl)Gly][Nlys][N(4-F-Bzl)Gly]-NH2) has what recorded Minimal inhibitory concentration MRSE^d?
Resp: 128

Req: Item NCCCCNCC(=O)N(CC(=O)N(CCCCN)CC(=O)N(CC(=O)N(CCCCN)CC(=O)N(CC(=O)N(CCCCN)CC(=O)N(CC(N)=O)Cc1ccc(F)cc1)Cc1ccccc1)Cc1ccc(F)cc1)Cc1ccccc1 [Compound 15] (H-[Nlys][Nphe][Nlys][N(4-F-Bzl)Gly][Nlys][Nphe][Nlys][N(4-F-Bzl)Gly]-NH2) has what recorded Minimal inhibitory concentration MRSE^d?
Resp: 128

Req: Item NCCCCNCC(=O)N(CC(=O)N(CCCCN)CC(=O)N(CC(=O)N(CCCCN)CC(=O)N(CC(=O)N(CCCCN)CC(=O)N(CC(N)=O)Cc1ccc(I)cc1)Cc1ccccc1)Cc1ccc(I)cc1)Cc1ccccc1 [Compound 18] (H-[Nlys][Nphe][Nlys][NBzl(4-I)Gly][Nlys][Nphe][Nlys][NBzl(4-I)Gly]-NH2) has what recorded Minimal inhibitory concentration MRSE^d?
Resp: 8

Req: Item NCCCCNCC(=O)N(CC(=O)N(CCCCN)CC(=O)N(CC(=O)N(CCCCN)CC(=O)N(CC(=O)N(CCCCN)CC(=O)N(CC(=O)N(CCCCN)CC(=O)N(CC(=O)N(CCCCN)CC(=O)N(CC(N)=O)Cc1ccc(I)cc1)Cc1ccccc1)Cc1ccc(I)cc1)Cc1ccccc1)Cc1ccc(I)cc1)Cc1ccccc1 [Compound 36] (H-[Nlys][Nphe][Nlys][NBzl(4-I)Gly][Nlys][Nphe][Nlys][NBzl(4-I)Gly][Nlys][Nphe][Nlys][NBzl(4-I)Gly]-NH2) has what recorded Minimal inhibitory concentration MRSE^d?
Resp: 4

Req: Item NCCCCNCC(=O)N(CC(=O)N(CCCCN)CC(=O)N(CC(=O)N(CCCCN)CC(=O)N(CC(=O)N(CCCCN)CC(=O)N(CC(N)=O)Cc1ccc(Cl)cc1)Cc1ccccc1)Cc1ccc(Cl)cc1)Cc1ccccc1 [Compound 16] (H-[Nlys][Nphe][Nlys][Gly(Nα-4-Cl-benzyl)][Nlys][Nphe][Nlys][Gly(Nα-4-Cl-benzyl)]-NH2) has what recorded Minimal inhibitory concentration MRSE^d?
Resp: 8

---

System: P. aeruginosa PA01 (H103)
Assay type: cell-based, Pseudomonas aeruginosa
COND: H103, 18 h
Non-standard residues stand in square brackets, D forms with d. Residues, ends and D or L forms follow the SMILES beside them. Gly(Nα-4-Cl-benzyl) = O=C(O)CNCc1ccc(Cl)cc1; N(4-F-Bzl)Gly = O=C(O)CNCc1ccc(F)cc1; NBzl(4-I)Gly = O=C(O)CNCc1ccc(I)cc1; Nphe = O=C(O)CNCc1ccccc1; Nlys = NCCCCNCC(=O)O
ATTRIBUTE_MEASURED: Minimal inhibitory concentration PA^g

Req: Item NCCCCNCC(=O)N(CC(=O)N(CCCCN)CC(=O)N(CC(=O)N(CCCCN)CC(=O)N(CC(=O)N(CCCCN)CC(=O)N(CC(=O)N(CCCCN)CC(=O)N(CC(=O)N(CCCCN)CC(=O)N(CC(N)=O)Cc1ccc(I)cc1)Cc1ccccc1)Cc1ccc(I)cc1)Cc1ccccc1)Cc1ccc(I)cc1)Cc1ccccc1 [Compound 36] (H-[Nlys][Nphe][Nlys][NBzl(4-I)Gly][Nlys][Nphe][Nlys][NBzl(4-I)Gly][Nlys][Nphe][Nlys][NBzl(4-I)Gly]-NH2) has what recorded Minimal inhibitory concentration PA^g?
Resp: > 512 µg/mL

Req: Item NCCCCNCC(=O)N(CC(=O)N(CCCCN)CC(=O)N(CC(=O)N(CCCCN)CC(=O)N(CC(=O)N(CCCCN)CC(=O)N(CC(N)=O)Cc1ccc(F)cc1)Cc1ccc(F)cc1)Cc1ccc(F)cc1)Cc1ccc(F)cc1 [Compound 11] (H-[Nlys][N(4-F-Bzl)Gly][Nlys][N(4-F-Bzl)Gly][Nlys][N(4-F-Bzl)Gly][Nlys][N(4-F-Bzl)Gly]-NH2) has what recorded Minimal inhibitory concentration PA^g?
Resp: > 512 µg/mL

Req: Item NCCCCNCC(=O)N(CC(=O)N(CCCCN)CC(=O)N(CC(=O)N(CCCCN)CC(=O)N(CC(=O)N(CCCCN)CC(=O)N(CC(N)=O)Cc1ccc(Cl)cc1)Cc1ccc(Cl)cc1)Cc1ccc(Cl)cc1)Cc1ccc(Cl)cc1 [Compound 12] (H-[Nlys][Gly(Nα-4-Cl-benzyl)][Nlys][Gly(Nα-4-Cl-benzyl)][Nlys][Gly(Nα-4-Cl-benzyl)][Nlys][Gly(Nα-4-Cl-benzyl)]-NH2) has what recorded Minimal inhibitory concentration PA^g?
Resp: > 512 µg/mL

---

Field: Minimal inhibitory concentration SA^b. Provide a value for each of the molecules that follow.
System: S. aureus ATCC 29213
Type: cell-based, Staphylococcus aureus
COND: ATCC 29213, 18 h
Non-standard residues stand in square brackets, D forms with d. Residues, ends and D or L forms follow the SMILES beside them. Gly(Nα-4-Cl-benzyl) = O=C(O)CNCc1ccc(Cl)cc1; N(4-Br-benzyl)Gly = O=C(O)CNCc1ccc(Br)cc1; Nphe = O=C(O)CNCc1ccccc1; Nlys = NCCCCNCC(=O)O
Write the number in µg/mL without appending the unit.

Req: Entry NCCCCNCC(=O)N(CC(=O)N(CCCCN)CC(=O)N(CC(=O)N(CCCCN)CC(=O)N(CC(N)=O)Cc1ccc(Cl)cc1)Cc1ccccc1)Cc1ccc(Cl)cc1 [Compound 7] (H-[Nlys][Gly(Nα-4-Cl-benzyl)][Nlys][Nphe][Nlys][Gly(Nα-4-Cl-benzyl)]-NH2) , system S. aureus ATCC 29213: what Minimal inhibitory concentration SA^b was measured?
Resp: 256

Req: Entry NCCCCNCC(=O)N(CC(=O)N(CCCCN)CC(=O)N(CC(=O)N(CCCCN)CC(=O)N(CC(=O)N(CCCCN)CC(=O)N(CC(=O)N(CCCCN)CC(=O)N(CC(=O)N(CCCCN)CC(=O)N(CC(N)=O)Cc1ccc(Br)cc1)Cc1ccc(Br)cc1)Cc1ccc(Br)cc1)Cc1ccc(Br)cc1)Cc1ccc(Br)cc1)Cc1ccc(Br)cc1 [Compound 31] (H-[Nlys][N(4-Br-benzyl)Gly][Nlys][N(4-Br-benzyl)Gly][Nlys][N(4-Br-benzyl)Gly][Nlys][N(4-Br-benzyl)Gly][Nlys][N(4-Br-benzyl)Gly][Nlys][N(4-Br-benzyl)Gly]-NH2) , system S. aureus ATCC 29213: what Minimal inhibitory concentration SA^b was measured?
Resp: 8

Req: Entry NCCCCNCC(=O)N(CC(=O)N(CCCCN)CC(=O)N(CC(=O)N(CCCCN)CC(=O)N(CC(=O)N(CCCCN)CC(=O)N(CC(=O)N(CCCCN)CC(=O)N(CC(N)=O)Cc1ccc(Br)cc1)Cc1ccc(Br)cc1)Cc1ccc(Br)cc1)Cc1ccc(Br)cc1)Cc1ccc(Br)cc1 [Compound 22] (H-[Nlys][N(4-Br-benzyl)Gly][Nlys][N(4-Br-benzyl)Gly][Nlys][N(4-Br-benzyl)Gly][Nlys][N(4-Br-benzyl)Gly][Nlys][N(4-Br-benzyl)Gly]-NH2) , system S. aureus ATCC 29213: what Minimal inhibitory concentration SA^b was measured?
Resp: 2

---

ASSAY_DETAILS: Critical aggregation concentration from SAXS fit analysis
Format: physicochemical
Non-standard residues stand in square brackets, D forms with d. Residues, ends and D or L forms follow the SMILES beside them. Gly(Nα-4-Cl-benzyl) = O=C(O)CNCc1ccc(Cl)cc1; N(4-F-Bzl)Gly = O=C(O)CNCc1ccc(F)cc1; Nphe = O=C(O)CNCc1ccccc1; Nlys = NCCCCNCC(=O)O
Field: critical aggregation concentration (CAC). Provide a value for each of the compounds that follow.

Req: Item NCCCCNCC(=O)N(CC(=O)N(CCCCN)CC(=O)N(CC(=O)N(CCCCN)CC(=O)N(CC(=O)N(CCCCN)CC(=O)N(CC(=O)N(CCCCN)CC(=O)N(CC(N)=O)Cc1ccccc1)Cc1ccccc1)Cc1ccccc1)Cc1ccccc1)Cc1ccccc1 [Compound 19] (H-[Nlys][Nphe][Nlys][Nphe][Nlys][Nphe][Nlys][Nphe][Nlys][Nphe]-NH2) has what recorded critical aggregation concentration (CAC)?
Resp: > 5 mg/mL

Req: Item NCCCCNCC(=O)N(CC(=O)N(CCCCN)CC(=O)N(CC(=O)N(CCCCN)CC(=O)N(CC(=O)N(CCCCN)CC(=O)N(CC(=O)N(CCCCN)CC(=O)N(CC(N)=O)Cc1ccc(Cl)cc1)Cc1ccc(Cl)cc1)Cc1ccc(Cl)cc1)Cc1ccc(Cl)cc1)Cc1ccc(Cl)cc1 [Compound 21] (H-[Nlys][Gly(Nα-4-Cl-benzyl)][Nlys][Gly(Nα-4-Cl-benzyl)][Nlys][Gly(Nα-4-Cl-benzyl)][Nlys][Gly(Nα-4-Cl-benzyl)][Nlys][Gly(Nα-4-Cl-benzyl)]-NH2) has what recorded critical aggregation concentration (CAC)?
Resp: > 5 mg/mL

Req: Item NCCCCNCC(=O)N(CC(=O)N(CCCCN)CC(=O)N(CC(=O)N(CCCCN)CC(=O)N(CC(=O)N(CCCCN)CC(=O)N(CC(=O)N(CCCCN)CC(=O)N(CC(N)=O)Cc1ccc(F)cc1)Cc1ccccc1)Cc1ccc(F)cc1)Cc1ccccc1)Cc1ccc(F)cc1 [Compound 24] (H-[Nlys][N(4-F-Bzl)Gly][Nlys][Nphe][Nlys][N(4-F-Bzl)Gly][Nlys][Nphe][Nlys][N(4-F-Bzl)Gly]-NH2) has what recorded critical aggregation concentration (CAC)?
Resp: > 5 mg/mL
